From: patent US8765755B2

Recorded pIC50 for the following compounds
Test system: BafT_J2
assay.explanation: Cellular screening, BaF3 TEL:JAK2 cells (Alamar Blue)
Format: cell-based
test.settings: Mus musculus, 40 hr incubation
pIC50: −log10 of the molar value.

Past entries and their recorded results:
COc1cc(Nc2ncc3scc(-c4ccc(CO)cc4)c3n2)cc(OC)c1OC	> 6.00
COc1cc(-c2csc3cnc(Nc4ccc(N5CCOCC5)cc4)nc23)ccc1N	> 6.00
CS(=O)(=O)Nc1ccc(-c2csc3cnc(Nc4ccc(N5CCOCC5)cc4)nc23)cc1	> 6.00
CC(C)c1ccccc1-c1csc2cnc(Nc3ccc(OCCN4CCCC4)cc3)nc12	> 6.00
Nc1ccc(-c2csc3cnc(Nc4ccc(N5CCOCC5)cc4)nc23)cc1	> 6.00
CCN1CCN(Cc2ccc(Nc3ncc4scc(-c5cccc(S(=O)(=O)NC(C)(C)C)c5)c4n3)cc2)CC1	> 6.00
CS(=O)(=O)NCc1cccc(-c2csc3cnc(Nc4ccc(OCCN5CCCC5)cc4)nc23)c1	> 6.00
CC(=O)Nc1cccc(-c2csc3cnc(Nc4ccc(CN5CCOCC5)cc4)nc23)c1	> 6.00

The value of pIC50 measured for the compound `NCc1ccc(-c2csc3cnc(Nc4ccc(CN5CCOCC5)cc4)nc23)cc1` turned out to be > 6.00

The value of pIC50 measured for the compound `CC(C)(C)NS(=O)(=O)c1cccc(-c2csc3cnc(Nc4ccc(OCCN5CCCC5)cc4)nc23)c1` turned out to be > 6.00

The value of pIC50 measured for the compound `CS(=O)(=O)N(CC#N)c1cccc(-c2csc3cnc(Nc4ccc(N5CCOCC5)cc4)nc23)c1` turned out to be > 6.00
